OBSERVABLE: melting point

# example entries with known answers
O=C(Nc1ccccc1Cl)Nc1ccccc1NS(=O)(=O)c1c[nH]c(=O)[nH]c1=O [Compound L14d]
151 to 153 °C
Cc1ccccc1NC(=O)Nc1ccccc1NS(=O)(=O)c1c[nH]c(=O)[nH]c1=O [Compound L14g]
151 to 154 °C
Cc1ccccc1NC(=O)Nc1cccc(NS(=O)(=O)c2c[nH]c(=O)[nH]c2=O)c1 [Compound L15g]
163 to 167 °C
Cc1ccc(NC(=O)Nc2ccccc2NS(=O)(=O)c2c[nH]c(=O)[nH]c2=O)cc1 [Compound L14i]
165 to 169 °C
Cc1cccc(NC(=O)Nc2ccccc2NS(=O)(=O)c2c[nH]c(=O)[nH]c2=O)c1 [Compound L14h]
155 to 158 °C

Would you mind listing melting point for each of the following molecules?
1. Cc1cccc(NC(=O)Nc2cccc(NS(=O)(=O)c3c[nH]c(=O)[nH]c3=O)c2)c1 [Compound L15h]
2. Cc1ccc(NC(=O)Nc2cccc(NS(=O)(=O)c3c[nH]c(=O)[nH]c3=O)c2)cc1 [Compound L15i]

Completion:
1. 165 to 169 °C
2. 173 to 175 °C

Dear colleague, could you please provide melting point for the molecules listed below?
1. Cc1cccc(NC(=O)Nc2ccc(NS(=O)(=O)c3c[nH]c(=O)[nH]c3=O)cc2)c1 [Compound L13h]
2. O=C(Nc1ccc(Cl)cc1)Nc1cccc(NS(=O)(=O)c2c[nH]c(=O)[nH]c2=O)c1 [Compound L15f]

Completion:
1: 179 to 182 °C; 2: 169 to 171 °C
